System: barnyardgrass
experiment: Test D flooded paddy test
Format: in vivo, Echinochloa crus-galli
test-context: 250 g ai/ha, applied to paddy water, visual rating after 13 to 14 days, scale 0 to 100 (0 no effect, 100 complete control)
Recorded measurements of Plant response rating, Barnyardgrass (Flood), one per entry
Just the number, please, no unit attached.

The examples below pair each entry with its known result.
INSERT INTO results (compound, recorded_number) VALUES
  ('CCOC[C@H]1CN(C(=O)c2cc(-n3cnc(CC)n3)cc3c2OCCO3)c2cccc(Cl)c2O1 [Compound 387]', 25),
  ('CC(C)(C)c1ncn(-c2cccc(C(=O)N3CC(C(F)(F)F)Oc4c(Cl)cccc43)c2)n1 (stereo not shown) [Compound 353]', 0),
  ('Cc1ncnn1-c1cc(C(=O)N2CC(C(F)(F)F)Oc3c(Cl)cccc32)ccn1 (racemic) [Compound 333]', 0),
  ('Cc1ccc(-n2cnc(C(C)C)n2)cc1C(=O)N1C[C@H](C)Oc2c(F)cccc21 [Compound 242]', 55),
  ('CCc1ncn(-c2cccc(C(=O)N3CC(C(F)(F)F)Oc4c(C)cccc43)c2)n1 (stereo not shown) [Compound 344]', 25),
  ('CC(=O)N(C)c1ncn(-c2cccc(C(=O)N3C[C@H](C)Oc4c(C)cccc43)c2)n1 [Compound 336]', 0);

q: Look up Plant response rating, Barnyardgrass (Flood): CC(C)c1ncn(-c2cc(C(=O)N3CC(C(F)(F)F)Oc4c(Cl)cccc43)ccn2)n1 (single isomer, unassigned) [Compound 330]
a: 0

q: Request the reported Plant response rating, Barnyardgrass (Flood) associated with C[C@H]1CN(C(=O)c2cc(-n3cnc(C4CC4)n3)cc3c2OCCO3)c2cccc(Cl)c2O1 [Compound 156]
a: 40

---

Tested on: oat, wild
experiment: Test C preemergence
Type: in vivo, Avena fatua
test-context: Preemergence, 125 g ai/ha; 0 to 100 scale, 0 no effect, 100 complete control
property-measured: Plant response rating, Oat, Wild
Respond with the number and no other words.

These solved cases illustrate the format of a correct answer.
INSERT INTO results (molecule, system_under_test, recorded_number) VALUES
  ('Cc1cccc2c1OC(C(F)(F)F)CN2C(=O)c1cccc(-n2cnc(C(C)(C)C)n2)c1 (stereo not drawn)', 'oat, wild', 60),
  ('CCOC[C@H]1CN(C(=O)c2cc(-n3cnc(C(C)C)n3)cc3c2OCO3)c2cccc(Cl)c2O1', 'oat, wild', 0),
  ('CC(C)c1ncn(-c2cc(C(=O)N3CC(C(F)(F)F)Oc4c(Cl)cccc43)ccn2)n1 (single isomer, unassigned) [Compound 331]', 'oat, wild', 0),
  ('COC(C)(C)c1ncn(-c2ccc(C)c(C(=O)N3C[C@H](C)Oc4c(Cl)cccc43)c2)n1', 'oat, wild', 90),
  ('COC[C@H]1CN(C(=O)c2cc(-n3cnc(C(C)(C)C)n3)cc3c2OCCO3)c2cccc(Cl)c2O1', 'oat, wild', 20);

q: Consider the molecule CC(C)c1ncn(-c2cccc(C(=O)N3CC(C(F)(F)F)Oc4c(Cl)cccc43)c2)n1 (stereo not drawn) and give its measured Plant response rating, Oat, Wild.
a: 60

q: // Plant response rating, Oat, Wild lookup, key: CC(C)c1ncn(-c2cc(C(=O)N3CC(C(F)(F)F)Oc4c(Cl)cccc43)ccn2)n1 (single isomer, unassigned) [Compound 330]
a: 30

q: Item CC(=O)N(C)c1ncn(-c2cccc(C(=O)N3C[C@H](C)Oc4c(C)cccc43)c2)n1 has what recorded Plant response rating, Oat, Wild?
a: 0

q: # query: Plant response rating, Oat, Wild of entry Cc1ccc(-n2cnc(C#N)n2)cc1C(=O)N1C[C@H](C)Oc2c(Cl)cccc21
a: 0

q: Find the recorded Plant response rating, Oat, Wild belonging to Cc1cccc2c1OC(C(F)(F)F)CN2C(=O)c1ccnc(-n2cnc(C(C)(C)C)n2)c1 (stereo not drawn) and report it.
a: 20

q: What measured Plant response rating, Oat, Wild goes with COc1ccc(-n2cnc(C3CCC3)n2)cc1C(=O)N1C[C@H](C)Oc2c(Cl)cccc21 ?
a: 20

q: // lookup Plant response rating, Oat, Wild for CC(C)c1ncn(-c2ccc(OS(C)(=O)=O)c(C(=O)N3C[C@H](C)Oc4c(Cl)cccc43)c2)n1
a: 30

q: // Plant response rating, Oat, Wild lookup, key: Cc1ccc(-n2cnc(CC#N)n2)cc1C(=O)N1C[C@H](C)Oc2c(Cl)cccc21
a: 10

q: Quick one: Plant response rating, Oat, Wild of Cc1ncnn1-c1cc(C(=O)N2CC(C(F)(F)F)Oc3c(Cl)cccc32)ccn1 (racemic) ?
a: 0

q: Given the entry CC(C)c1ncn(-c2ccc(S(C)(=O)=O)c(C(=O)N3C[C@H](C)Oc4c(Cl)cccc43)c2)n1 , report its measured Plant response rating, Oat, Wild.
a: 0
